- Tested on: PC-3 prostate
- TEST: NCI tumour cell line growth inhibition, 48 h
QUANTITY: TGI

Recorded results for 5 compounds are shown here.
compound=Cc1cc(S(=O)(=O)NC(=C(C#N)C#N)[n+]2ccc(N(C)C)cc2)c([S-])cc1Cl target="PC-3 prostate" quantity=TGI result="> 100 µM"
compound=O=C(N/N=C/c1ccccc1O)C(O)(c1ccccc1)c1ccccc1 target="PC-3 prostate" quantity=TGI result="> 100 µM"
compound=COC(=O)[C@H]1C(=O)[C@@]2(C)[C@H]([C@H](OC(=O)c3ccccc3)[C@]3(O)C[C@H](OC(=O)[C@H](O)[C@@H](NC(=O)c4ccc(F)cc4)c4ccccc4)C(C)=C1C3(C)C)[C@]1(OC(C)=O)CO[C@@H]1C[C@@H]2O target="PC-3 prostate" quantity=TGI result="> 25 µM"
compound=Cc1ccc2c3c(cnc2n1)C(=O)OCCN3C target="PC-3 prostate" quantity=TGI result="> 100 µM"
compound=Cc1ccc(S(=O)(=O)N2c3ccccc3[C@H]3CCc4c([nH]c5ccccc45)[C@H]32)cc1 target="PC-3 prostate" quantity=TGI result="> 100 µM"

Memo: NC(=O)C1c2ccccc2C=Cc2ccccc21 , reported TGI: > 100 µM
